All figures here come from ChEMBL document CHEMBL5528013.

- Experiment Description: Cytotoxicity against HEK293 cells lacking FLT3 activating mutations assessed as inhibition of cell growth incubated for 72 hrs by resazurin dye based assay
- Assay type: toxicity
- Conditions Used: human
Task for the reader: assign each of the following compounds its reported IC50 at 72 h.

Solved entries (count: 3):
INSERT INTO measurements (structure_smiles_string, reading) VALUES
  ('COc1ccc(Nc2cccc(-c3cnc4cc(-c5cnn(C)c5)ccn34)n2)cc1OC', '> 1000 nM'),
  ('Cn1cc(-c2ccn3c(-c4cccc(Nc5ccc(S(C)(=O)=O)cc5)n4)cnc3c2)cn1', '> 1000 nM'),
  ('COc1cc(Nc2cccc(-c3cnc4cc(-c5ccc(S(C)(=O)=O)cc5)ccn34)n2)cc(OC)c1OC', '> 1000 nM');

Now consider a different compound.
Incoming: Which IC50 at 72 h value is on record for Cn1cc(-c2ccn3c(-c4cccc(Nc5cccc(C(C)(C)C)c5)n4)cnc3c2)cn1 ?
Outgoing: 993 nM

###

Assign pIC50 to each entry below.
- Test system: MOLM-14
- Experiment Description: Antiproliferative activity against human MOLM-14 cells harboring FLT3-D835Y mutant assessed as inhibition of cell growth incubated for 72 hrs by resazurin dye based assay
- Type: functional
- Conditions Used: MOLM-14, 72 h
Answers are plain numbers, as −log10 of the molar value.

Some solved entries appear below for comparison.
INSERT INTO assay_data (structure_smiles_string, reading) VALUES
  ('Cn1cc(-c2ccn3c(-c4ccc(Cl)cc4)cnc3c2)cn1', 6.78),
  ('Cn1cc(-c2ccn3c(-c4cccc(Nc5cccc(C(C)(C)C)c5)n4)cnc3c2)cn1', 6.58),
  ('Cn1cc(-c2ccn3c(-c4cccc(Nc5ccc(C(=O)OC(C)(C)C)cc5)n4)cnc3c2)cn1', 7.12),
  ('CCOC(=O)Cc1ccc(Nc2cccc(-c3cnc4cc(-c5cnn(C)c5)ccn34)n2)cc1', 6.92),
  ('CC(C)c1ccc(Nc2cccc(-c3cnc4cc(-c5cnn(C)c5)ccn34)n2)cc1', 8.05),
  ('Cn1cc(-c2ccn3c(-c4cccc(Nc5ccc(OCCN6CCCC6)cc5)n4)cnc3c2)cn1', 8.66);

Please state pIC50 for every molecule in the list that follows.
1. Cn1cc(-c2ccn3c(-c4cccc(Cl)c4)cnc3c2)cn1
2. Cn1cc(-c2ccn3c(-c4cccc(Nc5cnccn5)n4)cnc3c2)cn1
3. COC(=O)c1ccc(C)c(Nc2cccc(-c3cnc4cc(-c5cnn(C)c5)ccn34)n2)c1
4. Cn1cc(-c2ccn3c(-c4cccc(Cl)n4)cnc3c2)cn1

Outgoing:
[6.23, 8.61, 6.75, 6.64]

Could I get pIC50 for every one of these entries?
1. COc1ccccc1Nc1cccc(-c2cnc3cc(-c4cnn(C)c4)ccn23)n1
2. Cn1cc(-c2ccn3c(-c4cccc(N5CCN(C(=O)OC(C)(C)C)CC5)n4)cnc3c2)cn1
3. CCc1ccc(Nc2cccc(-c3cnc4cc(-c5cnn(C)c5)ccn34)n2)cc1

Outgoing:
[8.78, 6.59, 8.44]

Batch: pIC50 for all items listed.
1. Cn1cc(-c2ccn3c(-c4cccc(Nc5cccc(C(F)(F)F)c5)n4)cnc3c2)cn1
2. Cn1cc(-c2ccn3c(-c4cccc(Nc5ccc(C(C)(C)C)cc5)n4)cnc3c2)cn1
3. Cn1cc(-c2ccn3c(-c4cccc(Nc5ccc(C(F)(F)F)cc5)n4)cnc3c2)cn1

Outgoing:
[8.49, 7.38, 7.72]
